Test system: SUDHL5
Experiment: Co-treatment combination study with Cpd. No. 15, CellTiter-Glo viability, Loewe Volume
Format: cell-based
Conditions: in combination with Cpd. No. 15, seven days, DLBCL cell line SUDHL5
Protocol: Mantle cell lymphoma (MCL) and diffuse large B-cell lymphoma (DLBCL) cell line cultures in log-linear growth rate were treated with combinations of Cpd. No. 15 and combination partners according to a co-treatment model. […] Fifty microliters of cell line suspension were directly dispensed to the assay-ready plates with an automated multichannel dispenser on to 384-well assay-ready plates. […] Luminescence was detected using a SpectraMax M5 microplate reader (Molecular Devices, Sunnyvale, CA). […]
QUANTITY NAME: Combination effect (Loewe Volume) SUDHL5

> print(dat)
                              line.notation                             quantity.name  assay.value
1  C=CC(=O)N1CCC([C@@H]2CCNc3c(C(N)=O)c(-c4ccc(Oc5ccccc5)cc4)nn32)CC1  Combination effect (Loewe Volume) SUDHL5    No Effect
2  CC#CC(=O)N1CCC[C@H]1c1nc(-c2ccc(C(=O)Nc3ccccn3)cc2)c2c(N)nccn12  Combination effect (Loewe Volume) SUDHL5    No Effect
3  C=CC(=O)N1CCC[C@@H](n2nc(-c3ccc(Oc4ccccc4)cc3)c3c(N)ncnc32)C1  Combination effect (Loewe Volume) SUDHL5    No Effect

These data points were gathered from patent US20240299352A1.
